tested system: T1, His-labeled human CD3E (human, UniProt P07766 23-126)
T1 construct: also called human CD3E antigen; antigen CD3E; not shown: His label
T1 sequence (P07766 23-126): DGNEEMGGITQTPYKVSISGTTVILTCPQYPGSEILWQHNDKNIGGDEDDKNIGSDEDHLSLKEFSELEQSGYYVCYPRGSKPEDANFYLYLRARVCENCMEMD
experiment description: BLI (Octet), method of Example 3: His-labeled human CD3E on Ni-NTA sensors
pKd: −log10 of the molar value.
pKd overview

- binder: "humanized antibody AB627 (antibody, V domains shown) VH: EVQLLESGGGLVQPGGSLKLSCAASGFTFNTYAMNWVRQAPGKGLEWVGRIRSKINNYATYYADSVKDRFTISRDDSKNTAYLQMNNLKTEDTAMYYCVRHDNFYGSTYSWHADWGQGTLVTVSS VL: ELVVTQEPSLTVSPGGTVTLTCRSSTGVVTTSNYANWVQEKPDHLFTGLIGATNYRAPGTPARFSGSLLGGKAALTLSGVQPEDEAIYFCVLWYSNHWVFGGGTKLTVL"
  comparator: "≥"
  pKd: 11.58
- binder: "humanized antibody AB614 (antibody, human IgG4 S228P, kappa, V domains shown, Humanized from AP591 CDRs) VH: EVQLLESGGGLVQPGGSLKLSCAASGFTFNTYAMNWVRQAPGKGLEWVGRIRSKINNYATYYADSVKDRFTISRDDSKNTAYLQMNNLKTEDTAMYYCVRHDNFYGSTYSWFADWGQGTLVTVSS VL: ELVVTQEPSLTVSPGGTVTLTCRSSTGVVTTSNYANWVQEKPDHLFTGLIGATNYRAPGTPARFSGSLLGGKAALTLSGVQPEDEAIYFCVLWYSNHWVFGGGTKLTVLR"
  comparator: "="
  pKd: 10.71
